# assay_overview: chemical genetic growth profiling, strain panel (AID 1159580);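 note: tested at 20 µM; growth read once vehicle control cultures reached saturation at 30 °C; 1 = growth at the plate median or of vehicle wells; lower values mean less growth of the strain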
# assay_conditions: S. cerevisiae deletion strains, growth OD, locus YGR229C, strain SMI1
Out of some 5,500 compounds screened, about 2,000 (36%) were called active. Not shown: some 18% with an inconclusive outcome. Cut-off read from the data, not from the text of the source: active = normalized growth mostly below about 0.91 (no sharp cut-off); inconclusive = no clear call, values can overlap the other calls; inactive = mostly above about 0.92. This is one part of the list.
Outcome codes: active, inactive

{"columns": ["molecule", "qualitative_label"],
 "data": [
  ["CCCCCCCCCCCCCCCC(=O)OC(CC(=O)O)C[N+](C)(C)C (configuration not stated)", "active"],
  ["CO[C@@]1(NC(=O)C(C(=O)O)c2ccc(O)cc2)C(=O)N2C(C(=O)O)=C(CSc3nnnn3C)CO[C@@H]21 (some centres not stated)", "inactive"],
  ["CCCC(C)(COC(N)=O)COC(=O)NC(C)C (configuration not stated)", "inactive"],
  ["NS(=O)(=O)c1cc(C2(O)NC(=O)c3ccccc32)ccc1Cl (configuration not stated)", "inactive"],
  ["CCN(CC)C(=O)c1[nH]c(C)c(C)c1C", "inactive"],
  ["CC(=O)O[C@@H]1CC(=O)[C@@]2(C)C(CC(=O)[C@]3(C)C2CC[C@@]2(C)[C@H](c4ccoc4)OC(=O)C4OC423)C1(C)C (some centres not stated)", "inactive"],
  ["NC(=NCCC[C@H](N)C(=O)O)N[N+](=O)[O-]", "inactive"],
  ["O=C(Nc1ccccc1)c1cc([N+](=O)[O-])ccc1Cl", "inactive"],
  ["NC(=Nc1ccccc1)NC(=O)c1nc(Cl)c(N)nc1N", "inactive"],
  ["CC1(C)O[C@H]2CC(=O)OC[C@]23[C@H]2CC[C@@]4(C)[C@H](c5ccoc5)OC(=O)[C@H]5O[C@]54[C@]2(C)C(=O)C[C@@H]13", "inactive"],
  ["CCN1C[C@]2(C)CC[C@H](OC)[C@]34C2[C@H](O)[C@]2(OCO[C@@]25C[C@H](OC)[C@H]2C[C@]3(O)C5[C@H]2O)C14", "inactive"],
  ["C=C[C@H]1CN2CC[C@H]1C[C@@H]2[C@@H](OC(=O)OCC)c1ccnc2ccc(OC)cc12", "inactive"],
  ["COc1cc(C(O)CO)ccc1OS(=O)(=O)O (configuration not stated)", "inactive"],
  ["CCOC(=O)NC1=C(C2CC2)C(=O)C(NC(=O)OCC)=C(C2CC2)C1=O", "inactive"],
  ["Oc1ccc2c(c1)OCC1(O)Cc3cc(O)c(O)cc3C21 (configuration not stated)", "inactive"],
  ["FC(F)(F)c1ccc(Cl)c(NC(=S)NN=C2CCCCCC2)c1", "inactive"],
  ["NC(=O)NCCCC(N)C(=O)O (configuration not stated)", "inactive"],
  ["O=S(=O)(c1cccc2c(I)cccc12)N1CCCNCC1", "inactive"],
  ["NC(=O)c1ncn([C@@H]2O[C@H](CO)[C@@H](O)[C@H]2O)n1", "inactive"],
  ["CN(C)C=Nc1nnc(SCc2ccc(C(=O)Oc3ccc(F)cc3F)cc2)s1", "inactive"],
  ["OC[C@H]1O[C@@H](n2cnc3c(N[C@H]4CC5CCC4C5)ncnc32)[C@H](O)[C@@H]1O (some centres not stated)", "inactive"],
  ["CC(=O)Oc1ccc2c(c1OC(C)=O)OCC1(O)Cc3c(cc(OC(C)=O)c(OC(C)=O)c3OC(C)=O)C21 (configuration not stated)", "inactive"],
  ["Cc1ccc(-c2csc(-c3ccc(Oc4ccc(C(F)(F)F)cn4)cc3)n2)c(C)c1", "inactive"],
  ["O=c1c(O)c(-c2cc(O)c(O)c(O)c2)oc2cc(O)cc(O)c12", "active"],
  ["CC(CC(O)C1OC1(C)C)[C@@H]1CCC2(C)C3=CCC4C(C)(C)C(=O)CCC4(C)C3CC[C@@]12C (some centres not stated)", "inactive"],
  ["COc1ccccc1NC(=O)NCCSCc1ccccc1Cl", "inactive"],
  ["CCC1OC(=O)[C@H](C)C(=O)[C@H](C)[C@@H](OC2O[C@H](C)C[C@H](N(C)C)[C@H]2O)[C@](C)(OC)C2(CCCn3cnc(-c4cccnc4)c3)C[C@@H](C)C(=O)[C@H](C)[C@H]3N(C2)C(=O)O[C@]13C (some centres not stated)", "inactive"]
]}

---

# assay_overview: chemical genetic growth profiling, strain panel (AID 1159580);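 note: tested at 20 µM; growth read once vehicle control cultures reached saturation at 30 °C; 1 = growth at the plate median or of vehicle wells; lower values mean less growth of the strain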
# assay_conditions: S. cerevisiae deletion strains, growth OD, locus YOR270C, strain vph1, stronger effect = lower value
Hit rate of the full screen: of about 5,500 compounds, about 2,000 (36%) were called active. Roughly 18% stayed inconclusive and do not appear here. Some of the results follow.

{"columns": ["molecule", "normalized growth"],
 "data": [
  ["O=C(OC1Cc2c(O)cc(O)cc2OC1c1cc(=O)c(O)c2c(O)c(O)cc(C3Oc4cc(O)cc(O)c4CC3O)c2c1)c1cc(O)c(O)c(O)c1 (stereo not drawn)", 0.638],
  ["C[C@]12CCC3c4ccc(O)cc4CCC3C1C[C@@H](O)[C@@H]2O (stereo partly drawn)", 1.04],
  ["O=C(O[C@@H]1Cc2c(O)cc(O)cc2O[C@@H]1c1cc(O)c(=O)c2c(O)c(O)cc([C@H]3Oc4cc(O)cc(O)c4C[C@H]3OC(=O)c3cc(O)c(O)c(O)c3)c2c1)c1cc(O)c(O)c(O)c1", 0.223],
  ["C[C@]12C=CC(=O)C=C1CCC1C2[C@@H](O)C[C@@]2(C)C1CC[C@]2(O)C(=O)COP(=O)(O)O (stereo partly drawn)", 1.03],
  ["C[C@]12CCC3c4ccc(OS(=O)(=O)O)cc4CCC3C1CC[C@H]2O (stereo partly drawn)", 0.97],
  ["COc1ccc2c(c1)CCC1C2CCC2(C)C1C[C@@H](O)C2O (stereo partly drawn)", 1.11],
  ["CC(=O)[C@@]1(O)CCC2C3C[C@H](C)C4=CC(=O)C=CC4(C)[C@@]3(F)[C@@H](O)C[C@@]21C (stereo partly drawn)", 0.926],
  ["C[C@@H]1CC[C@@]2(OC1)O[C@H]1CC3C4CC[C@H]5C[C@@H](O)CC[C@]5(C)C4CC[C@]3(C)[C@H]1[C@@H]2C (stereo partly drawn)", 1.03]
]}

---

# assay_overview: chemical genetic growth profiling, strain panel (AID 1159580);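 note: tested at 20 µM; growth read once vehicle control cultures reached saturation at 30 °C; 1 = growth at the plate median or of vehicle wells; lower values mean less growth of the strain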
# assay_conditions: S. cerevisiae deletion strains, growth OD, locus YPL031C, strain PHO85, stronger effect = lower value
Among all 5,500 compounds or so, about 2,000 (36%) were called active. About 18% were inconclusive and are not listed. The list shows a part of the results.
For each record, check the reported normalized growth: if it is below 0.8 write Criterion met, else write Criterion not met.

{"columns": ["compound", "qualitative_label"],
 "data": [
  ["c1ccc(-c2nnc(-c3ccccn3)nc2-c2ccccc2)cc1", "Criterion met"],
  ["Oc1c(Br)cc(Br)cc1C=Nc1ccc(Sc2ccccc2)nc1Sc1ccccc1", "Criterion met"],
  ["OC1(C(F)(F)F)CC(c2ccc3ccccc3c2)=NN1 (stereo unspecified)", "Criterion met"],
  ["O=C(Nc1ccccc1)Nc1ccc(Cl)cc1[N+](=O)[O-]", "Criterion not met"],
  ["Oc1c(Br)cc(Br)cc1C=Nc1ccccn1", "Criterion met"],
  ["O=[N+]([O-])c1cc(Cl)cc([N+](=O)[O-])c1Nc1ccccc1", "Criterion not met"],
  ["FC(F)(F)c1ccc(N2CCc3ccccc3C2)c(NC(=S)Nc2cc(Cl)cc(Cl)c2)c1", "Criterion not met"],
  ["O=C1Nc2ccccc2/C1=C/c1ccc(C(F)(F)F)cc1Cl", "Criterion not met"],
  ["O=C1Nc2ccccc2/C1=C\\c1cccc([N+](=O)[O-])c1", "Criterion not met"],
  ["OC(COc1ccc(F)cc1)(c1ccccc1)c1ccccc1", "Criterion not met"]
]}

---

# assay_overview: chemical genetic growth profiling, strain panel (AID 1159580);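 note: tested at 20 µM; growth read once vehicle control cultures reached saturation at 30 °C; 1 = growth at the plate median or of vehicle wells; lower values mean less growth of the strain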
# assay_conditions: S. cerevisiae deletion strains, growth OD, locus YDR052C, strain DBF4, stronger effect = lower value
Screen size: about 5,500 compounds; about 2,000 (36%) were called active. Roughly 18% stayed inconclusive and do not appear here. The list shows a part of the results.
Let's look at some compounds and their measured normalized growth.

{"columns": ["compound", "normalized growth"],
 "data": [
  ["OC(COc1ccc(F)cc1)(c1ccccc1)c1ccccc1", 0.965],
  ["CC(C)(C)C(=O)NC(=S)N/N=C\\c1cc(Cl)cc(Cl)c1O", 0.945],
  ["Oc1c(Cl)cc(Cl)cc1/C=N\\NC(=S)Nc1cc(C(F)(F)F)cc(C(F)(F)F)c1", 0.894],
  ["O=C1Nc2ccccc2/C1=C\\c1cccc([N+](=O)[O-])c1", 0.97],
  ["CCNC(=S)N/N=C\\c1cc(Cl)cc(Cl)c1O", 0.929],
  ["Cc1cc(Cl)ccc1NNC(=O)c1sccc1Cl", 0.898],
  ["c1ccc(-c2nnc(-c3ccccn3)nc2-c2ccccc2)cc1", 0.908],
  ["Oc1c(Cl)cc(Cl)cc1C=Nc1ccc(Sc2ccccc2)nc1Sc1ccccc1", 0.968],
  ["CCCCNC(=S)N/N=C\\c1cc(Cl)cc(Cl)c1O", 0.941],
  ["COc1cc(Br)cc(C=Nc2ccc(Sc3ccccc3)nc2Sc2ccccc2)c1O", 0.976],
  ["COCCCNC(=S)N/N=C\\c1cc(Cl)cc(Cl)c1O", 0.956],
  ["O=S(=O)(CS(=O)(=O)Oc1ccc(Cl)c(Cl)c1)Oc1ccc(Cl)c(Cl)c1", 0.937],
  ["FC(F)(F)c1cccc(NC(=S)NN=C2CCCCCC2)c1", 0.982],
  ["FC(F)(F)c1ccc(N2CCc3ccccc3C2)c(NC(=S)Nc2cc(Cl)cc(Cl)c2)c1", 0.98],
  ["O=C1Nc2ccccc2/C1=C/c1ccc(Oc2ccccc2)nc1", 0.98],
  ["O/N=C(/c1ccc(Cl)cc1)c1cc2ccccc2o1", 0.93],
  ["Cc1c(C)c(C)c(C(O)c2ccccc2)c(C)c1C (stereo not drawn)", 0.989],
  ["O=C(Nc1ccccc1)Nc1ccc(Cl)cc1[N+](=O)[O-]", 0.968],
  ["Cc1cc(Cl)ccc1NNC(=O)c1sccc1Br", 0.931],
  ["Cc1ccc(NNC(=O)c2cccs2)cc1Cl", 0.976],
  ["COCCCNC(=S)N/N=C\\c1cc(Br)ccc1O", 0.973],
  ["O=C1Nc2ccccc2/C1=C\\c1ccc(Cl)cc1", 0.954],
  ["COc1ccc(/C=C2/C(=O)Nc3ccccc32)cc1", 0.898]
]}
